# Test system: 349418-098-R-PDC complex spheroid growth
# METHOD NOTES: Anticancer human tumor 349418-098-R-PDC patient-derived lung adenocarcinoma cell line growth inhibition [AhR]
# CONDITIONS: second compound 1 µM; first compound 0.00949 µM; hits give low values
RESULT TYPE: viability, T/C

[
  {
    "MOLECULE": "CC(C)CC(NC(=O)C(Cc1ccccc1)NC(=O)c1cnccn1)B(O)O (stereo unspecified) + CC(CO)NC(=O)c1cc(-c2ccc(Cl)cc2)nn(-c2cnn(C)c2)c1=O",
    "viability, T/C": "2.71%"
  }
]

Lookup: Fill in: viability, T/C of CCN(c1cc(-c2ccc(CN3CCOCC3)cc2)cc(C(=O)NCc2c(C)cc(C)[nH]c2=O)c1C)C1CCOCC1 + Cc1ccccc1N=Nc1ccc(NC(=O)c2ccnn2C)c(C)c1 is ___
Found: 87.8%

Lookup: Fill in: viability, T/C of Nc1ncn(C2CC(O)C(CO)S2)c(=O)n1 (stereo unspecified) + Cc1ccccc1N=Nc1ccc(NC(=O)c2ccnn2C)c(C)c1 is ___
Found: 98.7%

Lookup: Fill in: viability, T/C of Nc1ncn(C2CC(O)C(CO)S2)c(=O)n1 (stereo unspecified) + CC(CO)NC(=O)c1cc(-c2ccc(Cl)cc2)nn(-c2cnn(C)c2)c1=O is ___
Found: 90.5%

Lookup: Fill in: viability, T/C of CCc1c2c(nc3ccc(O)cc13)-c1cc3c(c(=O)n1C2)COC(=O)[C@]3(O)CC + CC(CO)NC(=O)c1cc(-c2ccc(Cl)cc2)nn(-c2cnn(C)c2)c1=O is ___
Found: 14.2%

Lookup: Fill in: viability, T/C of CCc1c2c(nc3ccc(O)cc13)-c1cc3c(c(=O)n1C2)COC(=O)[C@]3(O)CC + Cc1ccccc1N=Nc1ccc(NC(=O)c2ccnn2C)c(C)c1 is ___
Found: 19.7%

====

# Test system: 349418-098-R-PDC complex spheroid growth
# METHOD NOTES: Anticancer human tumor 349418-098-R-PDC cell line growth inhibition [AhR]; active = viability on the fitted dose curve at most 10% of control; inactive = the rest;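 note: spheroids also contain HUVEC endothelial cells and human MSC stroma; spheroids exposed to agents for seven days before luminescence viability read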
# CONDITIONS: second compound 10 µM; first compound 3.16 µM
Hello, when you answer, please use one of the following outcomes: TRUE for active, FALSE for inactive

// known answers, use as guide
[
  {
    "COMPOUND": "COc1cc(C2c3cc4c(cc3C(OC3OC5COC(C)OC5C(O)C3O)C3COC(=O)C23)OCO4)cc(OC)c1O (stereo unspecified) + Cc1ccccc1N=Nc1ccc(NC(=O)c2ccnn2C)c(C)c1",
    "DISCRETE LABEL": "FALSE"
  },
  {
    "COMPOUND": "Nc1ccccc1NC(=O)c1ccc(CNC(=O)OCc2cccnc2)cc1 + Cc1ccccc1N=Nc1ccc(NC(=O)c2ccnn2C)c(C)c1",
    "DISCRETE LABEL": "FALSE"
  },
  {
    "COMPOUND": "CC(C)c1c(-c2ccccc2)nc2c(C#N)c[nH]n2c1=O + Cc1ccccc1N=Nc1ccc(NC(=O)c2ccnn2C)c(C)c1",
    "DISCRETE LABEL": "FALSE"
  }
]

Lookup: Lab log entry: CC(C)c1c(-c2ccccc2)nc2c(C#N)c[nH]n2c1=O + Cc1cncc(-c2nc(NCCc3c[nH]c4ccccc34)c3ncn(C(C)C)c3n2)c1 — outcome as called in the assay?
Found: TRUE

Lookup: Lab log entry: O=C(c1cc(Cc2n[nH]c(=O)c3ccccc23)ccc1F)N1CCN(C(=O)C2CC2)CC1 + Cc1cncc(-c2nc(NCCc3c[nH]c4ccccc34)c3ncn(C(C)C)c3n2)c1 — outcome as called in the assay?
Found: TRUE

Lookup: Lab log entry: O=C(C=Cc1cccc(S(=O)(=O)Nc2ccccc2)c1)NO + Cc1ccccc1N=Nc1ccc(NC(=O)c2ccnn2C)c(C)c1 — outcome as called in the assay?
Found: TRUE
